target: UniProt Q9UPN9; assay: Binding affinity to human TRIM33-phd-bromo (D882 to A1087 residues) expressed in bacterial expression system by BROMOscan assay
Sequence (Q9UPN9 whole entry, the tested form may be a part): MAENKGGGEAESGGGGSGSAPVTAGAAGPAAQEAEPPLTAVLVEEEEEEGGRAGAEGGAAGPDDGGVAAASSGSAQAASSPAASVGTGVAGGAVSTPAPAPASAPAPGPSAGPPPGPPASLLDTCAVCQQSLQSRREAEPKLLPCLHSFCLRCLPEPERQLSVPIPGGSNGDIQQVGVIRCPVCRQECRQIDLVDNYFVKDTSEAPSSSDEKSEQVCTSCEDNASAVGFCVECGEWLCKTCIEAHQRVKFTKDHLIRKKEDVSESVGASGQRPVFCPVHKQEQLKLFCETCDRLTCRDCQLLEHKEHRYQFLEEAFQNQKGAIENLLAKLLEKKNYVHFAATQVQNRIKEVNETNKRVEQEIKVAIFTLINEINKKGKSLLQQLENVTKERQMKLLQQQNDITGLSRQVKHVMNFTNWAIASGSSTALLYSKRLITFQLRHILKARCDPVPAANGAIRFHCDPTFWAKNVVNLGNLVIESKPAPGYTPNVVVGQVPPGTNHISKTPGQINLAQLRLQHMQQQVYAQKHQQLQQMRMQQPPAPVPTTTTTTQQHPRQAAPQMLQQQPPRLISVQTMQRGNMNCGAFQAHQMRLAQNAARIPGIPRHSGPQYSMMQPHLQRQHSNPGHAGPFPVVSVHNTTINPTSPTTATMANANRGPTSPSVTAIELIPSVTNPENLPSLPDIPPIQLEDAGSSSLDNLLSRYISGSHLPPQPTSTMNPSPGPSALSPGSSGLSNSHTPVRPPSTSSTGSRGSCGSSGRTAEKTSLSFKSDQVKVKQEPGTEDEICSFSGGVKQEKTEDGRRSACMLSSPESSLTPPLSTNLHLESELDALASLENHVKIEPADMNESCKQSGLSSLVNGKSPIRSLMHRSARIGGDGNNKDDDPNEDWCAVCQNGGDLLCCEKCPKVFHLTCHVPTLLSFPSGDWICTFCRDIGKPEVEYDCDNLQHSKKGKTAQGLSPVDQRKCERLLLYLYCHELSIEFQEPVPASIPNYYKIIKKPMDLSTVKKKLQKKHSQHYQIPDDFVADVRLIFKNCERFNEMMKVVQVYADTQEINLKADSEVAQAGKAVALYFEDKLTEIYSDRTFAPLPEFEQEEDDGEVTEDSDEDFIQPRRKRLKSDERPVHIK
pKd: −log10 of the molar value.
parameter measured: pKd

Query block: # input compound: "COc1cc2c(cc1-c1c(C)noc1C)[nH]c1nc(C)nc(Nc3cc(C4CC4)nn3C)c12" ; wanted: its pKd
Result block: < 5.30

---

Can you tell me Ki for the items I'm about to list?
biological target: Bromodomain-containing protein 4 (Homo sapiens, UniProt O60885); assay: Inhibition of FAM-labeled ZBA248 binding to recombinant human BRD4 bromodomain 1 (44 to 168 residues) expressed in Rosetta2 Escherichia coli DE3 cells after 30 mins by fluorescence polarization assay
Record the result as number plus unit.

Query block: # input compound: "COc1cc2c(cc1-c1c(C)noc1C)[nH]c1nc(C)nc(Nc3cc(C)nn3C3CCC3)c12" ; wanted: its Ki
Result block: 2.6 nM

Query block: # input compound: "COc1cc2c(cc1-c1c(C)noc1C)[nH]c1nc(C)nc(Nc3cc(C)n(C)n3)c12" ; wanted: its Ki
Result block: 6.3 nM

Query block: # input compound: "COc1cc2c(cc1-c1c(C)noc1C)[nH]c1nc(C)nc(Nc3nn(C)c4ccc(F)cc34)c12" ; wanted: its Ki
Result block: 16.7 nM

Query block: # input compound: "COc1cc2c(cc1-c1c(C)noc1C)[nH]c1nc(C)nc(Nc3nn(CCO)c4ccccc34)c12" ; wanted: its Ki
Result block: 1 nM

Query block: # input compound: "COc1cc2c(cc1-c1c(C)noc1C)[nH]c1nc(C)nc(Nc3nn(C)c4c(F)cccc34)c12" ; wanted: its Ki
Result block: 31 nM

---

assay: Plasma concentration in SCID mouse xenografted with human MDA-MB-231 cells at 50 mg/kg administered via oral gavage measured after 6 hrs; type: ADME, organism-based
Binary call on concentration at 6 h: met from 1000 ng/mL upward, not met beneath that.

Query block: Please check the record "COc1cc2c(cc1-c1c(C)noc1C)[nH]c1nc(C)nc(Nc3c4c(nn3C)CCC4)c12" and state if its concentration at 6 h is at or above 1000 ng/mL.
Result block: met

Query block: Please check the record "COc1cc2c(cc1-c1c(C)noc1C)[nH]c1nc(C)nc(Nc3cc(C)nn3C(C)(C)C)c12" and state if its concentration at 6 h is at or above 1000 ng/mL.
Result block: not met

Query block: Please check the record "COc1cc2c(cc1-c1c(C)noc1C)[nH]c1nc(C)nc(Nc3cc(C(C)C)nn3C)c12" and state if its concentration at 6 h is at or above 1000 ng/mL.
Result block: met

Query block: Please check the record "COc1cc2c(cc1-c1c(C)noc1C)[nH]c1nc(C)nc(Nc3c4c(nn3C)CCCC4)c12" and state if its concentration at 6 h is at or above 1000 ng/mL.
Result block: met

Query block: Please check the record "COc1cc2c(cc1-c1c(C)noc1C)[nH]c1nc(C)nc(Nc3cc(C4CC4)nn3C)c12" and state if its concentration at 6 h is at or above 1000 ng/mL.
Result block: met

Query block: Please check the record "COc1cc2c(cc1-c1c(C)noc1C)[nH]c1nc(C)nc(Nc3cc(C(C)(C)C)nn3C)c12" and state if its concentration at 6 h is at or above 1000 ng/mL.
Result block: not met
